TARGET OR SYSTEM: recombinant human CYP1A1 (Homo sapiens, UniProt P04798)
Sequence (P04798 whole entry): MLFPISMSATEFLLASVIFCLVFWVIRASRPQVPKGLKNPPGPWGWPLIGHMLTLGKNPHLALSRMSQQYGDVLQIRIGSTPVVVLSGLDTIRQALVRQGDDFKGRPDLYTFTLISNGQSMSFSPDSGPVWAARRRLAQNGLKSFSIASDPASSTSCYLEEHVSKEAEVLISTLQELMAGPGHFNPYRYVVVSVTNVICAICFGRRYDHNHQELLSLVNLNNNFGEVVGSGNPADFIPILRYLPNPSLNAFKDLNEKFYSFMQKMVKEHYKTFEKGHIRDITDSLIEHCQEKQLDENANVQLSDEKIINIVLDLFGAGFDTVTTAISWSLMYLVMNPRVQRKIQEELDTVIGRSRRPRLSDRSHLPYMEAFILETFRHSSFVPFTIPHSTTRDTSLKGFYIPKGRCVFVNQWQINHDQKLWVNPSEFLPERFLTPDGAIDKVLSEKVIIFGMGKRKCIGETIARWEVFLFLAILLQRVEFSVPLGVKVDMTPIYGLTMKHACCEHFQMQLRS
METHOD NOTES: MROD by recombinant human CYP1A1, inhibition by quinidine
CONDITIONS: read-out: Ks2 ± S.E., rCYP1A1
READOUT LABEL: Kd (nM)
Numeric only. Scale: nM

Request: I would be grateful if you could share the reported Kd for COc1ccc2nc3ccc(=O)cc-3oc2c1 .
Result: 1300

###

METHOD NOTES: in vivo
CONDITIONS: HRN (hepatic reductase null), mouse, whole blood, po, 5 mg/kg
READOUT LABEL: half-life (h)
Numeric only. Scale: h

Request: I would be grateful if you could share the reported half-life for Cn1c(=O)c2c(ncn2C)n(C)c1=O .
Result: 8.4
